- ASSAY_SYSTEM: EWSR1 (UniProt Q01844 1-656)
- Sequence (Q01844 whole entry): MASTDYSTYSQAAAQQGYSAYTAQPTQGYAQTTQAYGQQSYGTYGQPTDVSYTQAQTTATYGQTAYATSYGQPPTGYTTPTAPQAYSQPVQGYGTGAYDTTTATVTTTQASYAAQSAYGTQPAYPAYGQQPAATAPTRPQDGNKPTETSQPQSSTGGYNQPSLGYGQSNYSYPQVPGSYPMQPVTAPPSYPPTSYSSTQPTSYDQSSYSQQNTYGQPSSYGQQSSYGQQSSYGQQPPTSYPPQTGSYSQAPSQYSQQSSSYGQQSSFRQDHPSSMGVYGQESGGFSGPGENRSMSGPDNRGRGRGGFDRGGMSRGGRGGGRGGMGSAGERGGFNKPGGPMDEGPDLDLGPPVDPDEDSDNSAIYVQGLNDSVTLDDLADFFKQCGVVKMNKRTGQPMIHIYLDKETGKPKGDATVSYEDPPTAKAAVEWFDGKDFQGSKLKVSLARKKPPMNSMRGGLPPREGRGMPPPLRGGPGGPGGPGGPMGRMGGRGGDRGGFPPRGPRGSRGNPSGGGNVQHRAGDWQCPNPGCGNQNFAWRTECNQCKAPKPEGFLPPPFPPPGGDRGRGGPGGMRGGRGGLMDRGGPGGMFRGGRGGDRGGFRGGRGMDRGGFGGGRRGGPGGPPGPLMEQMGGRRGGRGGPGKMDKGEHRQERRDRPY
- EXPERIMENT_NOTES: fluorescence anisotropy
PROPERTY_LABEL: pKd
Remember, pKd is on a log scale: it is -log10 of the molar concentration.

Task: Recorded pKd of RNA:DNA hybrid (45 bp) (DNA:RNA) RNA: CUGGAUCCGUACAGUGUAAGGGUGAGUGGUUGGGUGUGUGGGUGU DNA: ACACCCACACACCCAACCACTCACCCTTACACTGTACGGATCCAG , please.
Output: 7.56

Task: Recorded pKd of GCAGCUGGCACGACAGGUAUGAAUC (ssRNA) [25 nt RNA (R-loop oligo)] , please.
Output: 6.87

Task: Recorded pKd of Model R-loop (mixed) RNA: GCAGCUGGCACGACAGGUAUGAAUC DNA 1: GCCAGGGACGAGGTGAACCTGCAGGTGGGCGGCTACTACTTAGATGTCATCCGAGGCTTATTGGTAGAATTCGGCAGCGTCATGCGACGGC DNA 2: GCCGTCGCATGACGCTGCCGAATTCTACCACGCGATTCATACCTGTCGTGCCAGCTGCTTTGCCCACCTGCAGGTTCACCTCGTCCCTGGC , please.
Output: 7.54

Task: Recorded pKd of 66 nt RNA-1 (ssRNA) RNA: CUGGAUCCGUACAGUGUAAGGGUGAGUGGUUGGGUGUGUGGGUGUUGAUGUAGAACAAGAAUUCGA , please.
Output: 7.45
